system: DLD1; assay: cell viability (CellTiter-Glo) relative to plate median (fraction of plate median); higher = more viable cells; conditions: 10 µM; treatment time 24 h; reporter: 7TFP

[
  {
    "querySmiles": "C=CC(=O)Nc1cccc(Oc2nc(Nc3ccc(N4CCN(C)CC4)cc3OC)ncc2Cl)c1",
    "cell viability": 1.24
  },
  {
    "querySmiles": "CCS(=O)(=O)N1CC(CC#N)(n2cc(-c3ncnc4[nH]ccc34)cn2)C1",
    "cell viability": 1.02
  },
  {
    "querySmiles": "COc1cc(OC)c(/C=C/S(=O)(=O)Cc2ccc(OC)c(NCC(=O)O)c2)c(OC)c1",
    "cell viability": 0.988
  },
  {
    "querySmiles": "COc1ccc(-c2ccc3ncc4c(c3c2)n(-c2ccc(N3CCNCC3)c(C(F)(F)F)c2)c(=O)n4C)cn1",
    "cell viability": 0.0998
  },
  {
    "querySmiles": "Cc1cc2c(F)c(Oc3ncnn4cc(OC[C@@H](C)O)c(C)c34)ccc2[nH]1",
    "cell viability": 0.958
  },
  {
    "querySmiles": "Nc1nccc(Oc2ccc(NC(=O)c3c[nH]cc(-c4ccc(F)cc4)c3=O)cc2F)c1Cl",
    "cell viability": 1.16
  },
  {
    "querySmiles": "COc1cc2nccc(Oc3ccc(NC(=O)NC4CC4)c(Cl)c3)c2cc1C(N)=O",
    "cell viability": 1.07
  },
  {
    "querySmiles": "CC(C)(O)CC(=O)NCCn1ccc2ncnc(Nc3ccc(Oc4cccc(C(F)(F)F)c4)c(Cl)c3)c21",
    "cell viability": 1.04
  },
  {
    "querySmiles": "CC(C)n1nc(-c2cc3cc(O)ccc3[nH]2)c2c(N)ncnc21",
    "cell viability": 0.86
  }
]

Source of measurements: the supplement of paper PMC6522484
